Origin of measurements: patent US6962939B1

Measured pKi, listed per entry for reference.
Biological target: human 5-HT2B receptors (Homo sapiens, UniProt P41595)
Construct: expressed in transfected cells; host or cells: CHO cell line
Sequence (P41595 whole entry): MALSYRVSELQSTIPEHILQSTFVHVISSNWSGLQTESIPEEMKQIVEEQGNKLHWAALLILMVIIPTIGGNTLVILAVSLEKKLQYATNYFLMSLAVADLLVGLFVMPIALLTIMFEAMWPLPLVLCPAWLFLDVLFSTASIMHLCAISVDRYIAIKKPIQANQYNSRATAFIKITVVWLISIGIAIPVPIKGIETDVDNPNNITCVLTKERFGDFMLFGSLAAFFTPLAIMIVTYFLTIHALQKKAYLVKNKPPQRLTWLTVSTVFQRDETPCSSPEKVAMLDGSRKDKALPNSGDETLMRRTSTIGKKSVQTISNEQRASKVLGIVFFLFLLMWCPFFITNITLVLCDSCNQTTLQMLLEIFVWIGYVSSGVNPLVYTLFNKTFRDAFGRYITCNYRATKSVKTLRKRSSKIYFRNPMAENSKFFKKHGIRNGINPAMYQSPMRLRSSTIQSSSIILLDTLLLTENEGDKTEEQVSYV
Experiment: Binding to 5-HT2B receptor, [3H]-5-HT, CHO cell line
Details: read-out: Ki (2B)
Counter-ions that a name gives are not always drawn.
Units for pKi: none; it is -log10 of a concentration expressed in mol/L.

>>> result_number("C[C@H](N)CN1CCc2ccc3ccccc3c21 [Compound 1]")
7.41

# evaluate next
Incoming: Any idea what pKi was measured for C[C@H](N)CN1CCc2ccc3c(c21)OCCO3 [Compound 6, fumarate] ?
Outgoing: 6.66

* * *

Listed compounds paired with reported pKi
Molecular target: 5-HT2A receptor (Homo sapiens, UniProt P28223)
Where a name gives a salt, the structure may show the parent alone.
Reminder that pKi is minus the log10 of a molar concentration.

>>> result_number("C[C@H](N)CN1CCc2ccc3c(c21)OCCO3 [Compound 6, fumarate]")
6.65

# ---- query compound ----
Incoming: Which value of pKi has been reported for C[C@H](N)CN1CCc2ccc3ccccc3c21 in the records?
Outgoing: 6.76

* * *

Target: 5-HT2C receptor (Homo sapiens, UniProt P28335)
Sequence (P28335 33-458): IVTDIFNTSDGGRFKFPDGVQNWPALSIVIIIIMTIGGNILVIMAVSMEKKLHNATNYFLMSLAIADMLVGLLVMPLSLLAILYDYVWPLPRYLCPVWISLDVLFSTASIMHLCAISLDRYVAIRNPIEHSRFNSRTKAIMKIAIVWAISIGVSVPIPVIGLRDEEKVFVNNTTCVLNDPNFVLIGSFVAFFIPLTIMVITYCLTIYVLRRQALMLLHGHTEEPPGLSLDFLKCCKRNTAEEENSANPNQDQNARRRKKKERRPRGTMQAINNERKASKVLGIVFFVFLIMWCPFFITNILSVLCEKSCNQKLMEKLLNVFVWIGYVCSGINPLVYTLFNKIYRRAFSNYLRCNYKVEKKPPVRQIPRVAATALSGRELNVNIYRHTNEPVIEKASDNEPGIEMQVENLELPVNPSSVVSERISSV
Where a name gives a salt, the structure may show the parent alone.
Observation type: pKi
Would you please state pKi, meaning minus log10 of the concentration in mol/L, as a bare number?

>>> result_number("C[C@H](N)CN1CCc2ccc3c(c21)OCCO3 [Compound 6, fumarate]")
7.15

Moving on to another compound below.
Incoming: # query: pKi of entry C[C@H](N)CN1CCc2ccc3ccccc3c21 [Compound 1]
Outgoing: 6.97

* * *

Molecular target: h5-HT2C receptor (Homo sapiens, UniProt P28335)
Sequence (P28335 33-458): as the sequence (P28335 33-458) above
Test: Functional activity, FLIPR calcium assay, CHO cells expressing h5-HT2C
Conditions: FLIPR, CHO cells, Fluo 3-AM
Counter-ions that a name gives are not always drawn.
Observation type: pEC50
Answer as the number alone; pEC50 is minus log10 of concentration in mol/L.

Example entries begin here.
>>> result_number("CCC1CN(CC(C)N)c2c1ccc1c2CCO1 (single isomer, unassigned) [Compound 9]")
7.30
>>> result_number("C[C@H](N)CN1CCc2ccc3c(c21)CCO3 [Compound 3, fumarate]")
8.22
>>> result_number("C[C@H](N)CN1CCc2ccc3c(c21)CCS3 [Compound 5, fumarate]")
9.40
>>> result_number("CCC1CN(CC(C)N)c2c1ccc1c2CCO1 (single isomer, unassigned) [Compound 10]")
7.29
>>> result_number("C[C@H](N)CN1CCc2ccc3c(c21)CCC3 [Compound 8]")
6.66

Continue with the molecule presented below.
Incoming: What pEC50 value was documented for this molecule, C[C@H](N)CN1CCc2ccc3ccccc3c21 [Compound 1] ?
Outgoing: 6.80

* * *

Listing: EC50 of selected compounds
Molecular target: h5-HT2A receptor (Homo sapiens, UniProt P28223)
Construct: expressed in transfected cells; host or cells: CHO cells
Sequence (P28223 whole entry): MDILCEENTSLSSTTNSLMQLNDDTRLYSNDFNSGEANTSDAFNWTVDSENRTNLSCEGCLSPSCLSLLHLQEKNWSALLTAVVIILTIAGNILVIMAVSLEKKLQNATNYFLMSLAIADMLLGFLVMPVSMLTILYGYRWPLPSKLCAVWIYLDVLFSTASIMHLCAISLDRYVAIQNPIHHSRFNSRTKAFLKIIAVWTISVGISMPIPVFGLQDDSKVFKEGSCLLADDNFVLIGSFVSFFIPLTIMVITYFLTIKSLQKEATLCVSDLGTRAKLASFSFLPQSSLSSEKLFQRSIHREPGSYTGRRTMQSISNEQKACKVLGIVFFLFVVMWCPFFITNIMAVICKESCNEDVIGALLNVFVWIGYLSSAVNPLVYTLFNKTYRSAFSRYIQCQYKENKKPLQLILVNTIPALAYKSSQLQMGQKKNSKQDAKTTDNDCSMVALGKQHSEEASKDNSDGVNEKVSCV
Assay: Functional activity, FLIPR calcium assay, CHO cells expressing h5-HT2A
Format: cell-based
Conditions: FLIPR, CHO cells, Fluo 3-AM
Where a name gives a salt, the structure may show the parent alone.

Solved cases below.
>>> result("CCC1CN(CC(C)N)c2c1ccc1c2CCO1 (single isomer, unassigned) [Compound 9]")
"1140 nM"
>>> result("C[C@H](N)CN1CCc2ccc3ccccc3c21 [Compound 1]")
"1370 nM"
>>> result("C[C@H](N)CN1CCc2ccc3c(c21)CCCC3 [Compound 7]")
"1830 nM"
>>> result("CCC1CN(CC(C)N)c2c1ccc1c2CCO1 (single isomer, unassigned) [Compound 10]")
"403 nM"
>>> result("C[C@H](N)CN1CCc2ccc3c(c21)CCC3 [Compound 8]")
"≥ 10000 nM"

Incoming: Need EC50, item C[C@H](N)CN1CCc2ccc3c(c21)CCS3 [Compound 5, fumarate]
Outgoing: 48 nM
